- Tested on: Streptococcus pneumoniae
- Method notes: Antimicrobial activity against erythromycin-resistant Streptococcus pneumoniae A22072 expressing the mef gene by broth microdilution method
- Format: functional
Value kind: MIC (µg/mL)
Quick reminder: number only, in µg/mL, skip the unit.

Request: MIC, test system Streptococcus pneumoniae, entry CC[C@H]1OC(=O)[C@H](C)[C@@H](O[C@H]2C[C@@](C)(OC)[C@@H](OC(=O)NCCCCCC(=O)NC(C)C)[C@H](C)O2)[C@H](C)[C@@H](O[C@@H]2O[C@H](C)C[C@H](N(C)C)[C@H]2O)[C@](C)(OC)C[C@@H](C)C(=O)[C@H](C)[C@@H](O)[C@]1(C)O
8

# iterate: CCCNC(=O)CCCNC(=O)O[C@H]1[C@H](C)O[C@@H](O[C@H]2[C@H](C)[C@@H](O[C@@H]3O[C@H](C)C[C@H](N(C)C)[C@H]3O)[C@](C)(OC)C[C@@H](C)C(=O)[C@H](C)[C@@H](O)[C@](C)(O)[C@@H](CC)OC(=O)[C@@H]2C)C[C@@]1(C)OC
4

Note, next up: CC[C@H]1OC(=O)[C@H](C)[C@@H](O[C@H]2C[C@@](C)(OC)[C@@H](OC(=O)NCCCC(=O)NCCc3ccc(O)cc3)[C@H](C)O2)[C@H](C)[C@@H](O[C@@H]2O[C@H](C)C[C@H](N(C)C)[C@H]2O)[C@](C)(OC)C[C@@H](C)C(=O)[C@H](C)[C@@H](O)[C@]1(C)O
0.5

// next record CC[C@H]1OC(=O)[C@H](C)[C@@H](O[C@H]2C[C@@](C)(OC)[C@@H](OC(=O)NCCCC(=O)NCCc3ccccc3Cl)[C@H](C)O2)[C@H](C)[C@@H](O[C@@H]2O[C@H](C)C[C@H](N(C)C)[C@H]2O)[C@](C)(OC)C[C@@H](C)C(=O)[C@H](C)[C@@H](O)[C@]1(C)O
1
